# System: OVCAR-8 ovarian
# ASSAY: NCI tumour cell line growth inhibition, 48 h
ENDPOINT_LABEL: TGI

Exam item: # TGI lookup, item Cn1c(CCC2(C)Cc3ccccc3C(=O)O2)cc2ccccc2c1=O (stereo not drawn)
Marked response: > 100 µM

* * *

# Tested on: RPMI-8226 leukemia
# ASSAY: NCI tumour cell line growth inhibition, 48 h; in the data active means GI50 below about 0.43 µM; inactive means the rest
Your response should consist of one outcome taken from active, inactive

Exam item: Record request — test call for C=C1C(=O)O[C@H]2[C@H]1CC/C(COC(=O)NCc1ccc(Cn3c(=O)sn(CCCC)c3=O)cc1)=C\CC[C@@]1(C)O[C@@H]21
Marked response: inactive

Exam item: Would you mind telling me which call this test gave CN1CCN(CCOc2ccc(-c3cnc4c(-c5cccc(F)c5F)cnn4c3)cc2)CC1 ?
Marked response: inactive

Exam item: Per the records of this test, what outcome belongs to c1ccc(-c2n(Cc3ccc4ccccc4n3)cc[n+]2Cc2ccc3ccccc3n2)cc1 ?
Marked response: active

Exam item: Hi team, can someone confirm the assay call for N#Cc1cc2c(cc1Cl)SC(=Nc1ccccc1)N(S(=O)(=O)c1ccc(Cl)cc1)S2(=O)=O ?
Marked response: inactive

Exam item: How was CN(C)c1ccc2nc3ccc(=[N+](C)C)c([N+](=O)[O-])c-3sc2c1 classified in this test?
Marked response: inactive

Exam item: Field: outcome | Entry: COc1ccc2c(c1)C(=Nc1ccc(F)c(F)c1F)c1c-2c(Nc2ccc(F)c(F)c2F)nc2ccccc12
Marked response: inactive

Next:
Exam item: Given C=C1CC[C@@H]2C(C)(C)[C@H](O)CC[C@@]2(C)[C@@H]1COc1ccc2ccc(=O)oc2c1 , state the outcome it received in this test.
Marked response: inactive

Exam item: Hey, what did the test say about COc1cc(Cl)cc(-c2nn(-c3cccc(NC(=O)c4cccc(C(F)(F)F)c4)c3)cc2-c2ccncc2)c1 ?
Marked response: inactive

* * *

# Test system: SK-MEL-28 melanoma
# ASSAY: NCI tumour cell line growth inhibition, 48 h
ENDPOINT_LABEL: TGI

Take a look at these entries with their results.
Exam item: Could you tell me which TGI is on file for Cc1ccc(NC(=O)CC(=O)n2nc(-c3ccccc3)c(N=Nc3ccccc3[N+](=O)[O-])c2-c2ccccc2)cc1 ?
Marked response: > 100 µM

Exam item: For the compound CCOC(=O)N1CCC2C(=C(C)C(C)C3=C2C(=O)c2ccccc2C3=O)C1 (stereo not given) , what TGI is on record?
Marked response: > 10 µM

---
Exam item: Would you mind telling me what TGI value was observed for CN1CCN(CCCOc2ccc3ncnc(Nc4ccc(OCc5cccc(F)c5)c(Cl)c4)c3c2)CC1 ?
Marked response: 3.19 µM

Exam item: Which value of TGI has been reported for COc1cc2c(c(OC)c1OC)-c1ccc(SC)c(=O)cc1C(CC(=O)Oc1ccc(F)cc1)C2 (stereo not given) in the records?
Marked response: > 100 µM

Exam item: I am curious: what TGI value has been reported for COc1ccc(NC(=O)CSc2nnc(-c3ccc(N=Cc4ccc(Cl)cc4)cc3)o2)cc1 ?
Marked response: > 100 µM

* * *

# Tested on: SK-MEL-2 melanoma
# ASSAY: NCI tumour cell line growth inhibition, 48 h
Where a SMILES comes first, the peptide text is derived from it. Bridges are numbered along the chain shown (N, C = ends). [ ]: non-standard residue; d: D form. The star is where a group is joined. ξ: configuration not given here. PhAc = O=C(Cc1ccccc1)*; ξP = O=C(O)C1CCCN1
# reported TGI; entries follow

Consider the following illustrative entries.
Exam item: Requested field: TGI. Item: Cc1ccc(/C(O)=C/c2nc3ccccc3[nH]c2=O)cc1
Marked response: 17.6 µM

Exam item: Data request, read-out TGI, for Oc1cc2ccccc2cc1-c1n[nH]c(=S)n1CCc1ccccc1
Marked response: 32.8 µM

Exam item: What value of TGI has been reported for the following compound? CN(c1nc(=[N+](C)C)ss1)C1CCCCC1
Marked response: > 100 µM

Next:
Exam item: Would you kindly share the measured TGI for O=C(Cc1ccccc1)N[C@@H]1COC(=O)C2CCCN2C(=O)[C@@H]2CCCN2C1=O (some centres undefined) (PhAc-[dS]-Pro-[ξP]; ester 1-C) ?
Marked response: > 100 µM

Exam item: Quick one: TGI for Cc1cc2nc(CS)[nH]c2cc1C ?
Marked response: 34.7 µM

Exam item: Report TGI for O=c1cccccc1NCCCCCCCCNc1cccccc1=O please.
Marked response: > 100 µM

* * *

// values below are reported TGI
# Tested on: SN12C renal
# ASSAY: NCI tumour cell line growth inhibition, 48 h
API: value field is a number in µM; no unit string.

Below, 2 compounds whose answers are already recorded.
Exam item: # lookup: TGI of O=C1CNN=C(CSc2nc3ccc(I)cc3c(=O)n2Cc2ccccc2)N1
Marked response: 34.3

Exam item: Field request: TGI | item: Cc1cc2nc(CS)[nH]c2cc1C
Marked response: 71.3

Further cases:
Exam item: What does the record list as TGI for CN(C)c1ccc2nc3ccc(=[N+](C)C)c([N+](=O)[O-])c-3sc2c1 ?
Marked response: 5.26

Exam item: # TGI lookup, item COC(=O)C1=C(C(=O)OC)C2(C)OC1C(=O)C21CC1 (stereo not given)
Marked response: 43.4

* * *

TGI by entry:
# Tested on: PC-3 prostate
# ASSAY: NCI tumour cell line growth inhibition, 48 h

Guide cases for TGI, answers given:
Exam item: # query: TGI | item C[C@]12OC(=O)[C@]3(O)CC[C@H]4[C@@H](C[C@@H](O)[C@@]5(Cl)CC=CC(=O)[C@]45C)[C@]45OCC6C(=O)O[C@@H]1C[C@@]6(C)[C@H](C4=O)[C@@]32O5 (some centres not stated) | system: PC-3 prostate
Marked response: 8.71 µM

Exam item: So what TGI did COc1ccc(NC(C)=O)cc1N1C(=O)/C(=C\c2cccc(Oc3ccccc3)c2)S(=O)(=O)C1c1ccccc1 (configuration not stated) get with PC-3 prostate?
Marked response: > 100 µM

Exam item: Find the measured TGI: item Cc1ccc(NN=NCCCCN=NNc2ccc(C)cc2)cc1 , target or system PC-3 prostate.
Marked response: > 100 µM

New cases:
Exam item: API: value(readout=TGI, system=PC-3 prostate) for record Cc1ccc2c(=O)cc(-c3ccc(Cl)cc3)[nH]c2n1
Marked response: > 20.8 µM

Exam item: PC-3 prostate / TGI / CC1=C(C)C2(C#N)C(=O)N3C(=NC(c4ccccc4)NC3c3ccccc3)C2(C#N)C(c2ccccc2)N1 (configuration not stated) : value?
Marked response: > 100 µM

Exam item: Request - read-out TGI | tested on PC-3 prostate | molecule CC1(C)COC(c2ccc(C(=O)c3ccc(Cl)cc3)cc2)=N1
Marked response: > 100 µM

Exam item: Recorded TGI for CCOC(=O)N1CCC2C(=C(C)C(C)C3=C2C(=O)c2ccccc2C3=O)C1 (configuration not stated) with PC-3 prostate, please?
Marked response: > 10 µM

Exam item: Recall the recorded TGI for CCOC(=O)Oc1ccc(C(CNC(C)C)OC(=O)OCC)cc1OC(=O)OCC (configuration not stated) with PC-3 prostate and state it.
Marked response: > 100 µM

Exam item: Reported TGI for PC-3 prostate, given CC(=O)OCC1OC(n2c(C)c(C(C)=O)c(-c3ccc(Cl)cc3)c(C#N)c2=S)C(OC(C)=O)C(OC(C)=O)C1OC(C)=O (configuration not stated) ?
Marked response: > 100 µM

Exam item: State its TGI on PC-3 prostate: COc1ccc2c(c1)c(-c1nonc1-c1cn(C)c3ccccc13)cn2C
Marked response: > 100 µM

Exam item: Lab note: need TGI with PC-3 prostate for entry CC(C)Cn1cnc2c(Sc3c([N+](=O)[O-])ncn3C)nc(N)nc21 , please look it up.
Marked response: > 100 µM

Exam item: Request - read-out TGI | tested on PC-3 prostate | molecule Cc1[nH]n(-c2ncc(C#N)c(=O)[nH]2)c(=O)c1CCO
Marked response: > 100 µM

* * *

Listing of recorded GI50 by entry.
# System: SF-539 CNS
# ASSAY: NCI tumour cell line growth inhibition, 48 h

Examples from the recorded data:
Exam item: Reported GI50, compound CC(=O)Oc1cn(-c2ccc(Cl)cc2)nc1C1=NN(C(C)=O)C(c2ccc(F)cc2F)O1 (centres undefined) : ____
Marked response: 29.8 µM

Exam item: Returns the measured GI50 for the input compound. Input: COc1ccccc1NC(=O)c1ccc(NC2=C(Cl)C(=O)N(Cc3ccccc3)C2=O)cc1
Marked response: 16.6 µM

Exam item: GI50 for COc1ccc(OC)c(N(CCN2C(=O)c3ccccc3C2=O)C(=O)CCl)c1 ?
Marked response: 1.13 µM

Next:
Exam item: Reported GI50 for Cc1ccc(C2CC(c3cccc(Nc4ccncc4)c3)=NN2c2cc(Cl)cc(Cl)c2)cc1 (centres undefined) : what is it?
Marked response: 1.65 µM
